EXPERIMENTAL TARGET: ScBem1-D1
ASSAY OVERVIEW: SPOT peptide array binding signal intensity (averaged, normalized) (arbitrary units (background-subtracted, floor 0; scale differs between SH3 domains)); higher = stronger binding of the SH3 domain to the peptide
Recorded SPOT peptide array binding signal intensity, one value per entry.
Form field (numeric): enter value without unit.

GSKSGPPPRPKKPST ... 15

We now examine a further binder.
The binder listed as "DGNEEKPLLPTRPNK" shows SPOT peptide array binding signal intensity equal to 6.5
